TARGET_SYSTEM: T1, rhNav1.7α + β1-β2-β3 (rhesus Nav1.7α co-expressed with Navβ1, Navβ2 and Navβ3 on cells) (rhesus monkey (α subunit); β subunits …)
T1 construct: also called rhNav1.7-beta1-beta2-beta3; CHO FlpIn rhNav1.7α + β1-β2-β3
ASSAY_INFO: binding FACS, CHO FlpIn cells
What Bmax was measured for each of the following?
Give bare numbers, in %.

BINDER	DATA_VALUE
F010302317 (VHH, also called F0103387G04(L11V, A12V, K33R, R39Q, S50Y, S56D, T60A, G73R, W78V, S79Y, T83R, V89L, N93R, D99R, N100cI)-FLAG3-HIS6) VHH: EVQLVESGGGVVQPGGSLRLSCAASGPVFNINRMAWYRQAPGKQRELVAYVTPTGDISYADSVKGRFTISRDRSKRVYLQMNSLRPEDTALYYCRALLQPRSYSITRTYWGQGTLVTVSS	13
F010301848 (VHH, also called F0103387G04(L11V, A12V, K33R, R39Q, S50Y, S56D, T60A, G73N, W78V, S79Y, T83R, V89L, N93R)) VHH: EVQLVESGGGVVQPGGSLRLSCAASGPVFNINRMAWYRQAPGKQRELVAYVTPTGDISYADSVKGRFTISRDNSKRVYLQMNSLRPEDTALYYCRALLQPDSYSNTRTYWGQGTLVTVSS	100
F010301844 (VHH, also called F0103387G04(L11V, A12V, K33R, R39Q, S50Y, S56D, R76N, T83R, V89L, N93R)) VHH: EVQLVESGGGVVQPGGSLRLSCAASGPVFNINRMAWYRQAPGKQRELVAYVTPTGDISYTDSVKGRFTISRDGSKNWSLQMNSLRPEDTALYYCRALLQPDSYSNTRTYWGQGTLVTVSS	100
F010301656 (VHH, also called F0103387G04(K33R, S50Y, S56D, N93R)) VHH: EVQLVESGGGLAQPGGSLRLSCAASGPVFNINRMAWYRRAPGKQRELVAYVTPTGDISYTDSVKGRFTISRDGSKRWSLQMNSLTPEDTAVYYCRALLQPDSYSNTRTYWGQGTLVTVSS	100
F010302370 (VHH, also called F0103387G04(L11V, A12V, K33R, R39Q, S50Y, S56D, T60A, G73R, W78V, S79Y, T83R, V89L, N93R, D99S, N100cI)) VHH: EVQLVESGGGVVQPGGSLRLSCAASGPVFNINRMAWYRQAPGKQRELVAYVTPTGDISYADSVKGRFTISRDRSKRVYLQMNSLRPEDTALYYCRALLQPSSYSITRTYWGQGTLVTVSS	100

Required: Bmax, one value per binder below.
1. F010302315 (VHH, also called F0103387G04(L11V, A12V, K33R, R39Q, S50Y, S56D, T60A, W78V, S79Y, T83R, V89L, N93R, D99R, N100cI)) VHH: EVQLVESGGGVVQPGGSLRLSCAASGPVFNINRMAWYRQAPGKQRELVAYVTPTGDISYADSVKGRFTISRDGSKRVYLQMNSLRPEDTALYYCRALLQPRSYSITRTYWGQGTLVTVSS
2. F010302386 (VHH, also called F0103387G04(L11V, A12V, K33R, R39Q, S50Y, S56D, T60A, D72Q, W78V, S79Y, T83R, V89L, N93R, D99S, N100cI)) VHH: EVQLVESGGGVVQPGGSLRLSCAASGPVFNINRMAWYRQAPGKQRELVAYVTPTGDISYADSVKGRFTISRQGSKRVYLQMNSLRPEDTALYYCRALLQPSSYSITRTYWGQGTLVTVSS
3. F010302331 (VHH, also called F0103387G04(L11V, A12V, K33R, R39Q, S50Y, S56D, T60A, G73R, W78V, S79Y, T83R, V89L, N93R, S100R)) VHH: EVQLVESGGGVVQPGGSLRLSCAASGPVFNINRMAWYRQAPGKQRELVAYVTPTGDISYADSVKGRFTISRDRSKRVYLQMNSLRPEDTALYYCRALLQPDRYSNTRTYWGQGTLVTVSS

1: 23; 2: 100; 3: 38
